tested on: Human immunodeficiency virus 1; assay: Antiviral activity against HIV1 isolate NL4-3 harboring reverse transcriptase K103N/G190A double mutant assessed as inhibition of viral replication by phenoscreen assay in presence of 40% normal human serum; format: functional, organism-based; details: Human immunodeficiency virus 1, isolate NL4-3
Value kind: IC50 (µM)

{"columns": ["Line notation", "Value kind", "Value units", "Result number"],
 "data": [
  ["N#Cc1cc(Cl)cc(Oc2cc(OCc3cc(-c4ccncc4)[nH]n3)ccc2Cl)c1", "IC50", "µM", 0.12]
]}

---

tested on: Human immunodeficiency virus 1; assay: Antiviral activity against HIV1 isolate NL4-3 harboring reverse transcriptase K101E/G190A double mutant assessed as inhibition of viral replication by phenoscreen assay in presence of 40% normal human serum; format: functional, organism-based; details: Human immunodeficiency virus 1, isolate NL4-3

{"columns": ["Line notation", "IC50 (nM)"],
 "data": [
  ["N#Cc1cc(Cl)cc(Oc2cc(OCc3cc(-c4ccncc4)[nH]n3)ccc2Cl)c1", 118]
]}
